Test system: EfPiwi piRISC loaded with L1MC piRNA (26 nt)
Experiment: pre-steady-state target cleavage rate (min^-1); auxiliary factor: 500 nM Ephydatia muelleri Gtsf1; guide: L1MC piRNA 5'p-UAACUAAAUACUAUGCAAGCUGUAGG; MIWI and MILI are mouse PIWI proteins and EfPiwi is from a freshwater sponge; tags in brackets are library labels; higher = faster piRNA-guided slicing of the target
Use 1 (yes) when the recorded pre-steady-state target cleavage rate is no lower than 0.006; use 0 (no) when it is lower.

UCCUCCUACAGCUUGCAUAGUAUCUAGUUA	1 (yes)
UCCUGCUACAGGUUCCAUAGUAUUUAGUUA	0 (no)
UCCUGGAUCAGCUAGGAUAGUAUUUAGUUA	0 (no)
UCCUCCUACAGCUUGCAGUAGUAUUUAGUUA	0 (no)
UCCUGGAACAGCUUCCUUAGUAUUUAGUUA	0 (no)
UCCUGCUACAGCUUGCAUAGAAUUUAGUUA	0 (no)
UCCUGGAUCAGGUUGGAUAGUAUUUAGUUA	0 (no)
UCCUCCUACACGUUGCAUAGUAUUUAGUAA	0 (no)

Kindly review the next sequence as well.
Could you tell me if the measured pre-steady-state target cleavage rate of `UCCUGCAUCAGCUUGCAUAGUAUUUUCAAA` reaches 0.006 or more?
0 (no)
